Test system: UACC-257 melanoma
Experiment: NCI tumour cell line growth inhibition, 48 h
measured property: TGI (µM)
Please state the figure in µM; there is no need to write the unit.

# structure notation, TGI / µM
data = [
    ("COc1ccc(C(=O)NNc2nc(Cl)nc(N3CCN(C(c4ccccc4)c4ccccc4)CC3)n2)cc1", 9.06),
    ("Cc1nnc2n1N=C(c1ccc(Cl)cc1Cl)/C(=C/c1ccc(-c3ccc([N+](=O)[O-])cc3Cl)o1)S2", 41.2),
]

Now for another entry.
**Query** For the molecule shown here, O=C1/C(=C/c2ccccc2)CN(C(=O)CCN2CCCC2)C/C1=C\c1ccccc1 , give the reported TGI.
**Result** 6.65

This collection of values is drawn from PubChem BioAssay (NCI).
